# Test system: SW 982 tumor spheroid viability
# measurement.notes: Anticancer human tumor SW 982 cell line growth inhibition;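 note: spheroids exposed to compound for 7 days before readout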
# condition.set: second compound 10 µM; first compound 3 µM; hits give low values; spheroids with HUVEC and MSC
# Experimental: Multicellular complex tumor spheroid response to DNA repair inhibitors in combination with DNA-damaging drugs This study explores the anticancer activities of DNA-damaging drugs and inhibitors of DNA damage repair, both as single agents and in combinations. […] Twenty-six patient-derived or established malignant cell lines were evaluated representing sarcoma, melanoma, small cell lung cancer (SCLC), non-small cell lung cancer (NSCLC), as well as bladder, ovarian and pancreatic cancers. […]
outcome.measure: viability, T/C (%)
Answer in %, number only, no unit symbol.

# molecule, viability, T/C, %
rows = [
    ("O=C(c1cc(Cc2n[nH]c(=O)c3ccccc23)ccc1F)N1CCN(C(=O)C2CC2)CC1 + Cn1nnc2c(C(N)=O)ncn2c1=O", 67.6),
    ("Cn1ncnc1[C@H]1c2n[nH]c(=O)c3cc(F)cc(c23)N[C@@H]1c1ccc(F)cc1 + Cn1nnc2c(C(N)=O)ncn2c1=O", 50.3),
    ("CNCc1ccc(-c2cc(-c3nc(-c4ccc(S(=O)(=O)C(C)C)cc4)cnc3N)on2)cc1 + Cn1nnc2c(C(N)=O)ncn2c1=O", 8.84),
]

Then this molecule:
Prompt: Give reported viability, T/C value for Cc1sc2c(c1C)C(c1ccc(Cl)cc1)=NC(CC(=O)Nc1ccc(O)cc1)c1nnc(C)n1-2 (centres undefined) + Cn1nnc2c(C(N)=O)ncn2c1=O
Response: 17.8

---

List of viability, T/C values.
# Tested on: SW 982 tumor spheroid viability
# measurement.notes: Anticancer human tumor SW 982 cell line growth inhibition;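 note: spheroids exposed to compound for 7 days before readout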
# condition.set: second compound 0.00949 µM; first compound 0.0316 µM; hits give low values; spheroids with HUVEC and MSC
Answer in %, number only, no unit symbol.

Consider the reported viability, T/C for these molecules:
# molecule, viability, T/C (%)
rows = [
    ("CC1COCCN1c1cc(-c2ccnn2C)c2ccnc(-c3ccn[nH]3)c2n1 (stereo unspecified) + CC[C@@]1(O)C(=O)OCc2c1cc1n(c2=O)Cc2cc3c(CN(C)C)c(O)ccc3nc2-1", 16.3),
    ("CC(C)n1c(=O)n(C)c2cnc3cc(F)c(-c4ccc(OCCCN5CCCCC5)nc4)cc3c21 + CC[C@@]1(O)C(=O)OCc2c1cc1n(c2=O)Cc2cc3c(CN(C)C)c(O)ccc3nc2-1", 71.6),
    ("COc1cc(C)[nH]c(=O)c1CN1CCc2c(Cl)cc(C(OC)C3COC3)c(Cl)c2C1=O (stereo unspecified) + CC[C@@]1(O)C(=O)OCc2c1cc1n(c2=O)Cc2cc3c(CN(C)C)c(O)ccc3nc2-1", 74.8),
    ("[2H]c1nc(C)nc([2H])c1-c1cc(NC[C@@H](C)c2cccc3c(C(=O)NC)ccnc23)ncn1 + CC[C@@]1(O)C(=O)OCc2c1cc1n(c2=O)Cc2cc3c(CN(C)C)c(O)ccc3nc2-1", 89.1),
    ("Cc1cc(C)c(CNC(=O)c2cc(-c3ccc(CN4CCOCC4)cc3)cc3c2cnn3C2CCCC2)c(=O)[nH]1 + CC[C@@]1(O)C(=O)OCc2c1cc1n(c2=O)Cc2cc3c(CN(C)C)c(O)ccc3nc2-1", 96.1),
]

Then this molecule:
Prompt: Give reported viability, T/C value for COc1ccc([C@@H](O)c2cc(-c3ncnc4cc(N5CCOCC5)ccc34)c(F)cc2Cl)nn1 + CC[C@@]1(O)C(=O)OCc2c1cc1n(c2=O)Cc2cc3c(CN(C)C)c(O)ccc3nc2-1
Response: 86.4

---

# System: SW 982 tumor spheroid viability
# measurement.notes: Anticancer human tumor SW 982 cell line growth inhibition;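 note: spheroids exposed to compound for 7 days before readout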
# condition.set: second compound 0.0003 µM; first compound 0.3 µM; hits give low values; spheroids with HUVEC and MSC
List of viability, T/C values.
Answer in %, number only, no unit symbol.

# compound, viability, T/C / %
data = [
    ("Cn1ncnc1[C@H]1c2n[nH]c(=O)c3cc(F)cc(c23)N[C@@H]1c1ccc(F)cc1 + COc1cc2c(cc1O)CCNC21CSC2c3c(OC(C)=O)c(C)c4c(c3C(COC1=O)N1C(O)C3Cc5cc(C)c(OC)c(O)c5C(C21)N3C)OCO4", 76.1),
]

Prompt: Name the value of viability, T/C reported for O=C(c1cc(Cc2n[nH]c(=O)c3ccccc23)ccc1F)N1CCN(C(=O)C2CC2)CC1 + COc1cc2c(cc1O)CCNC21CSC2c3c(OC(C)=O)c(C)c4c(c3C(COC1=O)N1C(O)C3Cc5cc(C)c(OC)c(O)c5C(C21)N3C)OCO4 when tested on SW 982 tumor spheroid viability.
Response: 80.7

Prompt: Name the value of viability, T/C reported for CNCc1ccc(-c2cc(-c3nc(-c4ccc(S(=O)(=O)C(C)C)cc4)cnc3N)on2)cc1 + COc1cc2c(cc1O)CCNC21CSC2c3c(OC(C)=O)c(C)c4c(c3C(COC1=O)N1C(O)C3Cc5cc(C)c(OC)c(O)c5C(C21)N3C)OCO4 when tested on SW 982 tumor spheroid viability.
Response: 28.2

Prompt: Name the value of viability, T/C reported for Cc1sc2c(c1C)C(c1ccc(Cl)cc1)=NC(CC(=O)Nc1ccc(O)cc1)c1nnc(C)n1-2 (centres undefined) + COc1cc2c(cc1O)CCNC21CSC2c3c(OC(C)=O)c(C)c4c(c3C(COC1=O)N1C(O)C3Cc5cc(C)c(OC)c(O)c5C(C21)N3C)OCO4 when tested on SW 982 tumor spheroid viability.
Response: 68

---

# Tested on: SW 982 tumor spheroid viability
# measurement.notes: Anticancer human tumor SW 982 cell line growth inhibition;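 note: spheroids exposed to compound for 7 days before readout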
# condition.set: second compound 100 µM; first compound 0.949 µM; hits give low values; spheroids with HUVEC and MSC
outcome.measure: viability, T/C (%)
Answer in %, number only, no unit symbol.

Consider the reported viability, T/C for these compounds:
# compound, value.unit, viability, T/C
measured = [
    ("Cn1ncnc1[C@H]1c2n[nH]c(=O)c3cc(F)cc(c23)N[C@@H]1c1ccc(F)cc1 + Cn1nnc2c(C(N)=O)ncn2c1=O", "%", 39.8),
    ("Cc1sc2c(c1C)C(c1ccc(Cl)cc1)=NC(CC(=O)Nc1ccc(O)cc1)c1nnc(C)n1-2 (centres undefined) + Cn1nnc2c(C(N)=O)ncn2c1=O", "%", 16.1),
    ("CNCc1ccc(-c2cc(-c3nc(-c4ccc(S(=O)(=O)C(C)C)cc4)cnc3N)on2)cc1 + Cn1nnc2c(C(N)=O)ncn2c1=O", "%", 22.7),
]

Then this compound:
Prompt: Give reported viability, T/C value for O=C(c1cc(Cc2n[nH]c(=O)c3ccccc23)ccc1F)N1CCN(C(=O)C2CC2)CC1 + Cn1nnc2c(C(N)=O)ncn2c1=O
Response: 50.7

---

# System: SW 982 tumor spheroid viability
# measurement.notes: Anticancer human tumor SW 982 cell line growth inhibition;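 note: spheroids exposed to compound for 7 days before readout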
# condition.set: second compound 10 µM; first compound 0.1 µM; hits give low values; spheroids with HUVEC and MSC
# Description: Multicellular complex tumor spheroid response to DNA repair inhibitors in combination with DNA-damaging drugs This study explores the anticancer activities of DNA-damaging drugs and inhibitors of DNA damage repair, both as single agents and in combinations. […] Twenty-six patient-derived or established malignant cell lines were evaluated representing sarcoma, melanoma, small cell lung cancer (SCLC), non-small cell lung cancer (NSCLC), as well as bladder, ovarian and pancreatic cancers. […]
outcome.measure: viability, T/C

# molecule, assay.system, viability, T/C
data = [
    ("CC1COCCN1c1cc(-c2ccnn2C)c2ccnc(-c3ccn[nH]3)c2n1 (stereo unspecified) + Cn1nnc2c(C(N)=O)ncn2c1=O", "SW 982 tumor spheroid viability", "16.6%"),
    ("CC(C)n1c(=O)n(C)c2cnc3cc(F)c(-c4ccc(OCCCN5CCCCC5)nc4)cc3c21 + Cn1nnc2c(C(N)=O)ncn2c1=O", "SW 982 tumor spheroid viability", "75.5%"),
    ("COc1cc(C)[nH]c(=O)c1CN1CCc2c(Cl)cc(C(OC)C3COC3)c(Cl)c2C1=O (stereo unspecified) + Cn1nnc2c(C(N)=O)ncn2c1=O", "SW 982 tumor spheroid viability", "83.5%"),
    ("Cc1cc(C)c(CNC(=O)c2cc(-c3ccc(CN4CCOCC4)cc3)cc3c2cnn3C2CCCC2)c(=O)[nH]1 + Cn1nnc2c(C(N)=O)ncn2c1=O", "SW 982 tumor spheroid viability", "82.6%"),
    ("COc1ccc([C@@H](O)c2cc(-c3ncnc4cc(N5CCOCC5)ccc34)c(F)cc2Cl)nn1 + Cn1nnc2c(C(N)=O)ncn2c1=O", "SW 982 tumor spheroid viability", "70%"),
]

Prompt: Give reported viability, T/C value for [2H]c1nc(C)nc([2H])c1-c1cc(NC[C@@H](C)c2cccc3c(C(=O)NC)ccnc23)ncn1 + Cn1nnc2c(C(N)=O)ncn2c1=O
Response: 76%
